study_system: T1, 4H3613-bA
T1 chain: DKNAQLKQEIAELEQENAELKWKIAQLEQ
measurement_protocol: two-hybrid library CCNG1;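 also: natural log of median RNA to DNA barcode read ratio; higher means stronger binding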
result_type: interaction score

Please review the entries below; each comes with its answer.
DENAQLEQKIAELKQEIAELEWENAQLKQ [4H1348-bA] :: -1.05
DKNAQLEQENAELKQEIAELKWKIAQLEQ [4H3277-bA] :: -0.514
DKNAQLEQKNAELEQKIAELKWEIAQLEQ [4H3497-bA] :: -1.15

I = DKNAQLEQKNAELEQEIAELEWKIAQLKQ [4H3462-bA]
II = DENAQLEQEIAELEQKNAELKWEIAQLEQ [4H1081-bA]
III = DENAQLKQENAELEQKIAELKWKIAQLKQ [4H1710-bA]
IV = DKNAQLEQEIAELKQENAELKWEIAQLKQ [4H3162-bA]
List from greatest to least interaction score. Write the labels in rank order as requested.
IV, III, II, I
(IV: 0.452, III: 0.262, II: -0.495, I: -0.827)
